Target Or Test System: GST-Dm-Relish (Drosophila melanogaster, UniProt Q94527 99-473)
Sequence: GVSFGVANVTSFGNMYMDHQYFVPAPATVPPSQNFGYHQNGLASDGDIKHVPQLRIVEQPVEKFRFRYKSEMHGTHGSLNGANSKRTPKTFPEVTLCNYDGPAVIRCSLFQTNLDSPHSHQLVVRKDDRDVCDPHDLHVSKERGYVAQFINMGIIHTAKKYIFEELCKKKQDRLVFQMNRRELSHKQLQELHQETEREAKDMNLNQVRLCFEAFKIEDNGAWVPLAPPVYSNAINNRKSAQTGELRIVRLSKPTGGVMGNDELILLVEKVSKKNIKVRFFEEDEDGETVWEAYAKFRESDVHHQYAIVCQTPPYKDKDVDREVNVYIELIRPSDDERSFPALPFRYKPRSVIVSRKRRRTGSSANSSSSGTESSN
Test Protocol: protein-binding microarray (PBM); PBM: ~300 nM protein, 6 mM HEPES pH 7.8, 80 mM KCl, 0.5 mM EDTA, 0.5 mM EGTA, 6% glycerol, 35 ng/ul poly-dIdC, 1% milk, 1 h, room temperature; Ap Aiptasia and Nv Nematostella (sea anemones) / Co Capsaspora / Aq Amphimedon (sponge) / Dm Drosophila / Hu human; RHD is the Rel homology domain; high values mean tight binding
Conditions Used: dsDNA, one strand shown
Readout Kind: binding signal (z-score)
Your answer is read as z-score, so omit the unit and give the number.

Request: I am curious: what binding signal value has been reported for CCGATTAACATCAGGGGGGACTATGATGTTAATCGGGTCTTGATTCGCTTGACGCTGCTG ?
Response: 4.09

Request: Need binding signal of CCGATTAACATCAGATAACCCCCTGATGTTAATCGGGTCTTGATTCGCTTGACGCTGCTG , thanks.
Response: 6.66

Request: May I ask what binding signal has been recorded for CCGATTAACATCAGGGGACTTCATGATGTTAATCGGGTCTTGATTCGCTTGACGCTGCTG ?
Response: 6.09

Request: Suppose we examine the sequence CCGATTAACATCAGGGAACGCCCTGATGTTAATCGGGTCTTGATTCGCTTGACGCTGCTG ; what binding signal value has been reported?
Response: 4.32

Request: Could you share which binding signal value was measured for CCGATTAACATCAAACTCCCCCGTGATGTTAATCGGGTCTTGATTCGCTTGACGCTGCTG ?
Response: 5.92

Request: I would be grateful if you could share the reported binding signal for CCGATTAACATCAAAGGTCCCCCTGATGTTAATCGGGTCTTGATTCGCTTGACGCTGCTG .
Response: 4.42

Request: Quick one: binding signal for CCGATTAACATCATGAAGACCCCTGATGTTAATCGGGTCTTGATTCGCTTGACGCTGCTG ?
Response: 1.35

Request: Recorded binding signal for CCGATTAACATCAGATTCCCCCATGATGTTAATCGGGTCTTGATTCGCTTGACGCTGCTG , please?
Response: 5.21

Request: Can you look up the measured binding signal of CCGATTAACATCAAAAGAGTCCCTGATGTTAATCGGGTCTTGATTCGCTTGACGCTGCTG for me?
Response: 5.32

Request: Bench note: what binding signal did CCGATTAACATCAAGTATTCCCCTGATGTTAATCGGGTCTTGATTCGCTTGACGCTGCTG show?
Response: 7.14

Request: Any idea what its binding signal is? The sequence is CCGATTAACATCAGGGGAGAATATGATGTTAATCGGGTCTTGATTCGCTTGACGCTGCTG
Response: 1.73

Request: Would you kindly share the measured binding signal for CCGATTAACATCAAGGGGAATAATGATGTTAATCGGGTCTTGATTCGCTTGACGCTGCTG ?
Response: 4.17

Request: Recorded binding signal for CCGATTAACATCAGGGGAATTACTGATGTTAATCGGGTCTTGATTCGCTTGACGCTGCTG , please?
Response: 10.2

Request: So what does the record say about binding signal for CCGATTAACATCAAAACTCCCCATGATGTTAATCGGGTCTTGATTCGCTTGACGCTGCTG ?
Response: 5.96

Request: Fill in: binding signal of CCGATTAACATCAGGGAAGTTTATGATGTTAATCGGGTCTTGATTCGCTTGACGCTGCTG is ___
Response: 3.35

Request: Could you tell me which binding signal is on file for CCGATTAACATCAGGAAAATCCCTGATGTTAATCGGGTCTTGATTCGCTTGACGCTGCTG ?
Response: 7.08

Request: What value of binding signal has been recorded for this entry: CCGATTAACATCAGGCGATTCCCTGATGTTAATCGGGTCTTGATTCGCTTGACGCTGCTG
Response: 2.34

Request: Name the recorded binding signal for CCGATTAACATCAGGGGGATTCATGATGTTAATCGGGTCTTGATTCGCTTGACGCTGCTG .
Response: 7.41
